- Target: "5-HT1 -like" receptor (dog isolated saphenous vein strip) (Canis lupus familiaris, UniProt P79250)
- Construct: contracting the isolated dog saphenous vein strip; from tissue; host or cells: dog isolated saphenous vein strip
- Sequence (P79250 whole entry): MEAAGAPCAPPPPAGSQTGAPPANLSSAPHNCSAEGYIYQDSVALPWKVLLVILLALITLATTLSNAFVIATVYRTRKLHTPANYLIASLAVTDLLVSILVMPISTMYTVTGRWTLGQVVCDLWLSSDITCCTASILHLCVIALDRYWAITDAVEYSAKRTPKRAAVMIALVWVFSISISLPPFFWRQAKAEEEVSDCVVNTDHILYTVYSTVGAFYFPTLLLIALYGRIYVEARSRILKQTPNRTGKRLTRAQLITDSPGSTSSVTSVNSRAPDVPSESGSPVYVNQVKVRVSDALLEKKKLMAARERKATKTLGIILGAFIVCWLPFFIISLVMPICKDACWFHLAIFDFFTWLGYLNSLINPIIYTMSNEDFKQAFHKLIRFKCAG
- Test description: contraction of dog isolated saphenous vein strip (5-HT1-like receptor agonist activity)
- Type: cell-based
- Condition parameters: in vitro, ratio to 5-HT
Output TRUE for records whose RELATIVE POTENCY EC50 (compound)/EC50 (5-HT) is lower than 2, FALSE for records at or above 2.

molecule=CCS(=O)(=O)CCc1ccc2[nH]cc(C[C@H]3CCCN3CC=C(C)C)c2c1 assigned_class=FALSE

Continue with the molecule presented below.
Lab note: RELATIVE POTENCY EC50 (compound)/EC50 (5-HT) threshold 2. Does this molecule come in strictly under it? CCS(=O)(=O)CCc1ccc2[nH]cc(C[C@H]3CCCN3CCc3ccccn3)c2c1 FALSE

---

- Target: "5-HT1 -like" receptor (dog isolated saphenous vein strip) (Canis lupus familiaris)
- Construct: contracting the isolated dog saphenous vein strip; from tissue; host or cells: dog isolated saphenous vein strip
- Test description: contraction of dog isolated saphenous vein strip (5-HT1-like receptor agonist activity)
- Assay type: cell-based
- Condition parameters: in vitro, ratio to 5-HT
Task for the reader: assign each of the following molecules its reported RELATIVE POTENCY EC50 (compound)/EC50 (5-HT).

molecule=CCS(=O)(=O)CCc1ccc2[nH]cc(C[C@H]3CCCN3CCOC)c2c1 measured_value=2.3

Give RELATIVE POTENCY EC50 (compound)/EC50 (5-HT) for all molecules that follow.
1. CCS(=O)(=O)CCc1ccc2[nH]cc(C[C@H]3CCCN3CCO)c2c1
2. CCS(=O)(=O)CCc1ccc2[nH]cc(C[C@H]3CCCN3C(C)c3ccccc3)c2c1 (mixture of isomers)

3.8
1.4

// data source = patent US5639779A
